experiment: In vitro plasma protein binding of 14C-radiolabeled Compound #10; type: in vitro ADME, mice, rats, dogs, monkeys, and humans; details: mouse, rat, dog, monkey, human, all species, 0.05 to 50 μg/mL, read-out: Plasma protein binding, overall mean
ENDPOINT: fraction unbound

Check the records and state fraction unbound for COc1ccc(C2c3[nH]c4ccc(Cl)cc4c3CCN2C(=O)Oc2ccc(Cl)cc2)cc1 (racemic) ≤ 0.005

* * *

tested on: hypoxia-inducible endogenous VEGF expression; test: Hypoxia-inducible endogenous VEGF expression ELISA in HeLa cells, dose-response EC50 (Table 3); type: cell-based, human; details: Homo sapiens; HeLa cells, hypoxic conditions (1% O2), VEGF ELISA of conditioned media; read-out: ELISA EC50
For each of the compounds below, state its EC50.

These solved cases illustrate the format of a correct answer.
O=C(Oc1ccc(Cl)cc1)N1CCc2c([nH]c3ccc(Cl)cc23)C1c1ccc(OCC(O)CNS(=O)(=O)C2CC2)cc1 (stereo not shown)	40 to 200 nM
CS(=O)(=O)CCCOc1ccc([C@H]2c3[nH]c4ccc(Cl)cc4c3CCN2C(=O)Oc2ccc(Cl)cc2)cc1	< 8 nM
CC1(C)OC[C@H](CCOc2ccc([C@@H]3c4[nH]c5ccc(Cl)cc5c4CCN3C(=O)Oc3ccc(Cl)cc3)cc2)O1	> 1000 nM
O=C(NCC(O)CCOc1ccc([C@H]2c3[nH]c4ccc(Cl)cc4c3CCN2C(=O)Oc2ccc(Cl)cc2)cc1)c1ccncc1 (stereo partly shown)	< 8 nM
O=C(Oc1ccc(Cl)cc1)N1CCc2c([nH]c3ccc(Cl)cc23)[C@@H]1c1ccc(OCCc2cn(C3OC(CO)C(O)C(O)C3O)nn2)cc1 (stereo partly shown)	> 1000 nM

Could I get EC50 for every one of these entries?
1. C#CCOc1ccc([C@H]2c3[nH]c4ccc(Cl)cc4c3CCN2C(=O)Oc2ccc(Cl)cc2)cc1
2. NC(=O)c1cn(CCOc2ccc(C3c4[nH]c5ccc(Cl)cc5c4CCN3C(=O)Oc3ccc(Cl)cc3)cc2)nc1N (stereo not shown)

1. < 8 nM
2. 8 to 40 nM

* * *

tested on: hypoxia-inducible endogenous VEGF expression; assay: Hypoxia-inducible endogenous VEGF expression ELISA in HeLa cells, dose-response EC50 (Table 3); format: cell-based, human; conditions: Homo sapiens, HeLa, read-out: ELISA EC50 μM
For each of the molecules below, state its EC50.

Could I get EC50 for every one of these entries?
1. O=C(Oc1ccc(Cl)cc1)N1CCc2c([nH]c3ccc(Cl)cc23)[C@@H]1c1ccc(OC2CCN(CCN3CCOCC3)CC2)cc1
2. COCCN(C)CC(O)COc1ccc(C2c3[nH]c4ccc(Cl)cc4c3CCN2C(=O)Oc2ccc(F)cc2)cc1 (stereo not shown)
3. CN1CCCC1CCOc1ccc(C2c3[nH]c4ccc(Cl)cc4c3CCN2C(=O)Oc2ccc(F)cc2)cc1 (stereo not shown)
4. O=C(Oc1ccc(Cl)cc1)N1CCc2c([nH]c3ccc(Cl)cc23)[C@@H]1c1ccc(OC2CCN(CC[C@H](O)CO)CC2)cc1
5. O=C(Oc1ccc(Cl)cc1)N1CCc2c([nH]c3ccc(Cl)cc23)[C@@H]1c1ccc(OC[C@H](O)CN2CCOCC2)cc1
6. O=C(Oc1ccc(F)cc1)N1CCc2c([nH]c3ccc(Cl)cc23)C1c1ccc(OCCCCCCN2CCCC2)cc1 (stereo not shown)
7. CN1CCN(CC(O)COc2ccc(C3c4[nH]c5ccc(Cl)cc5c4CCN3C(=O)Oc3ccc(Cl)cc3)cc2)CC1 (stereo not shown)

1. < 0.008 µM
2. < 0.008 µM
3. 0.04 to 0.2 µM
4. 0.2 to 1 µM
5. < 0.008 µM
6. < 0.008 µM
7. 0.008 to 0.04 µM

Could I get EC50 for every one of these entries?
1. O=C(Oc1ccc(Cl)cc1)N1CCc2c([nH]c3ccc(Cl)cc23)C1c1ccc(OCC(O)CN2CCSCC2)cc1 (stereo not shown)
2. COCCN(C)CCCOc1ccc(C2c3[nH]c4ccc(Cl)cc4c3CCN2C(=O)Oc2ccc(Cl)cc2)cc1 (stereo not shown)
3. COc1ccc(OC(=O)N2CCc3c([nH]c4ccc(Cl)cc34)C2c2ccc(OCCCN3CCOCC3)cc2)cc1 (stereo not shown)
4. COCCN(C)CC(O)COc1ccc(C2c3[nH]c4ccc(Cl)cc4c3CCN2C(=O)Oc2ccc(Cl)cc2)cc1 (stereo not shown)
5. O=C(Oc1ccc(F)cc1)N1CCc2c([nH]c3ccc(Cl)cc23)C1c1ccc(OCCCCNCCCn2ccnc2)cc1 (stereo not shown)

["< 0.008 µM", "< 0.008 µM", "0.008 to 0.04 µM", "0.008 to 0.04 µM", "0.04 to 0.2 µM"]

Check the records and state EC50 for O=C(Oc1ccc(Cl)cc1)N1CCc2c([nH]c3ccc(Cl)cc23)C1c1ccc(OCC(O)CN2CCN(CCO)CC2)cc1 (stereo not shown) 0.008 to 0.04 µM
